B1: TPR t1 (parent)
chain: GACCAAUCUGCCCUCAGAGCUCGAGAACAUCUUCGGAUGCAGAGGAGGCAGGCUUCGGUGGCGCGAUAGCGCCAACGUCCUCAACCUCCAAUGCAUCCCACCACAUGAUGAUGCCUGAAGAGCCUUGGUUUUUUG

- Variants of: B1
- Protocol notes: polymerase ribozyme fitness, log enrichment relative to wild type (log ratio); higher = more active; in vitro selection for triplet polymerase activity
Measured quantity: polymerase ribozyme fitness (log ratio)

changes="C8U C12A A41U A46G G71A C89U" result_value=-2.07
changes="G47C C89U C124G" result_value=-0.507
changes="G39C C101A" result_value=-1.69
changes="C8G G48A G63C C72U C88A" result_value=-4.05
changes="G48U C62A" result_value=-1.81
changes="U21A C40A A46U A90U G93U" result_value=-2.45
changes="U9C C15A G45C G57C U59A" result_value=0.541
changes="G48U C64U G120A C123U" result_value=0.28
changes="C13G U106C" result_value=-2.21

Provenance of the data: the RNAGym collection of RNA variant scans (doi:10.1073/pnas.2313332121)
